The origin of these recorded values is paper PMC12175220.

# Assay Comment: Solubility of hydroxycinnamic acids in pure solvents (orbital shaker 72 h, HPLC)
# Type: physicochemical
# Condition Context: pure solvent 3F03F, 25 °C, organic solvent or mixture, thermodynamic from solid, solvent 3F03F, 298 K; read-out: Solubility
Property Label: solubility at 72 h (µg/mL)
Your answer should be a plain number; it is taken to be in µg/mL.

# get_value(readout='solubility at 72 h', item= "O=C(O)/C=C/c1ccc(O)cc1" ) 2000

----------
# Assay Comment: Solubility of hydroxycinnamic acids in pure solvents (orbital shaker 72 h, HPLC)
# Format: physicochemical
# Condition Context: pure solvent 3i03i, 25 °C, organic solvent or mixture, thermodynamic from solid, solvent 3i03i; Tables S-1 to S-3; read-out: Solubility
Property Label: solubility at 72 h (mg/mL)
Your answer should be a plain number; it is taken to be in mg/mL.

# get_value(readout='solubility at 72 h', item= "O=C(O)/C=C/c1ccc(O)c(O)c1" ) 25.1
